System: 2Sb-muMax20 (muMax20 with two 1,3-bis(methyl)benzene Cys staples, A13C/A17C and Q88C/A92C, C-terminal Lys)
Assay: PBM 8-mer E-score (E-score (rank enrichment, -0.5 to 0.5)); higher = stronger preferential binding
Over roughly 33,000 sequences, “E-score (rank enrichment, -0.5 to 0.5)” has its median near -0.0028; the highest 2% begin near 0.23. Shown is part of a subset that was picked to be rich in the highest values.
Assign 1 (yes) to entries whose PBM 8-mer E-score meets or exceeds 0.2; assign 0 (no) to the rest.

Here's what some known entries look like.
ACCCCAGA	0 (no)
CACGAATC	0 (no)
TTAATGAA	0 (no)
ATATGCCG	0 (no)
ACCCCAGT	1 (yes)
ATCGGGAG	0 (no)

Query sequence follows.
State whether the measured PBM 8-mer E-score reaches 0.2, counting equality as reaching it, for ACCCCACC 1 (yes)

* * *

Tested on: 2Sb-muMax20 (muMax20 with two 1,3-bis(methyl)benzene Cys staples, A13C/A17C and Q88C/A92C, C-terminal Lys)
Experiment: PBM 8-mer E-score (E-score (rank enrichment, -0.5 to 0.5)); higher = stronger preferential binding
In all, about 33,000 sequences were measured (“E-score (rank enrichment, -0.5 to 0.5)”: median about -0.0028, highest 2% from about 0.23 on). The full list was thinned out, with the highest values kept by preference.
Assign t whenever PBM 8-mer E-score does not fall below 0.09; assign f whenever it does.

ACGTTATA	t

Can ACATTCTC be said to have PBM 8-mer E-score at or above 0.09? f

# check: PBM 8-mer E-score of AAACGACG is greater than or equal to 0.09 f

Test whether the sequence CCCACTCG records PBM 8-mer E-score of 0.09 or higher. f

Could you tell me if the measured PBM 8-mer E-score of AGAGTGAC reaches 0.09 or more? f

Could you tell me if the measured PBM 8-mer E-score of CATACAAC reaches 0.09 or more? t

Determine whether this sequence has PBM 8-mer E-score no lower than 0.09: AATACAAC t

Does the sequence AGCAGAGG have recorded PBM 8-mer E-score that is 0.09 or more? f

Tell me whether PBM 8-mer E-score is at least 0.09 here: AACATATA t

Item TCCGTCCA with PBM 8-mer E-score of 0.09 or above? f

Please indicate if the recorded PBM 8-mer E-score for CATTAGAA meets or exceeds 0.09. f

Confirm if PBM 8-mer E-score reported for the sequence CACATTTC is 0.09 or above. t

Record AGTATTAT ; criterion: PBM 8-mer E-score no lower than 0.09. Met? f

* * *

Tested on: 2Sb-muMax20 (muMax20 with two 1,3-bis(methyl)benzene Cys staples, A13C/A17C and Q88C/A92C, C-terminal Lys)
Experiment: PBM 8-mer E-score (E-score (rank enrichment, -0.5 to 0.5)); higher = stronger preferential binding
The full ranking holds about 33,000 sequences; the median of “E-score (rank enrichment, -0.5 to 0.5)” is about -0.0028, and the highest 2% start at about 0.23. Only a selection was taken, and the highest values are over-represented in it overall.
property: PBM 8-mer E-score
Give bare numbers.

Look over these answered cases.
GTGTTTGA	0.1
CTGTATGC	0.0233
ATATTACA	0.173

Could I get PBM 8-mer E-score for every one of these entries?
1. AAAACGAG
2. AATTTAAA
3. AGGCCACT

1. -0.00059
2. 0.0161
3. 0.129

Record PBM 8-mer E-score for all entries; do not skip any.
1. AGTACGTA
2. ATCTTACA
3. GGGAATAA
4. GTAATTGA

0.183
0.075
0.273
0.0929

Dear reader, for each entry below, please note its PBM 8-mer E-score.
1. CAAAGCAA
2. CTGGGGGC
3. GTCGATTA
4. ATCTACTA
5. CTATTACA
6. AGACGTGA
7. AATCCTGT
8. CACATGCG

0.173
-0.289
-0.0254
0.243
0.14
0.0177
0.0436
0.124

List PBM 8-mer E-score for every entry below, keeping the order given.
1. CACATGAA
2. ACAATTGA
3. ATTACAGG
4. ATTACACG
5. ATCGCGAT

[0.125, 0.194, 0.286, 0.0209, 0.255]

Kindly give each listed record's PBM 8-mer E-score.
1. CCTACACC
2. ATAATGGG
3. ATTGGCAA

[0.00456, 0.238, 0.105]

For the 8 sequences below, give their PBM 8-mer E-score values.
1. CTCAAGTC
2. AAACCCTC
3. CTAATGTC
4. GTCGCGAA
5. TATACCCA
6. ACACGTAT
7. AGTGTTGG
8. CATTAGTA

[0.0478, 0.0564, -0.0718, -0.208, 0.0636, 0.205, 0.043, 0.0235]

The following sequences each have a reported value; give each one's PBM 8-mer E-score.
1. GGGAATAC
2. GCTGTCGA
3. CAACCTTG
4. GTATTAAA

0.0722
-0.165
-0.0156
0.177

# map each sequence to its PBM 8-mer E-score
1. ATAATGGC
2. GGCCACGA
3. AATTAGTA
4. AATACCCG

1: 0.012; 2: -0.0901; 3: 0.281; 4: -0.105

* * *

I'd be grateful if you could share measured PBM 8-mer E-score for these entries.
Test system: 2Sb-muMax20 (muMax20 with two 1,3-bis(methyl)benzene Cys staples, A13C/A17C and Q88C/A92C, C-terminal Lys)
Test: PBM 8-mer E-score (E-score (rank enrichment, -0.5 to 0.5)); higher = stronger preferential binding
The full ranking holds about 33,000 sequences; the median of “E-score (rank enrichment, -0.5 to 0.5)” is about -0.0028, and the highest 2% start at about 0.23. This is one part of a sample in which the highest values are shown more often than they occur.
Numbers only.

For orientation, consider the following solved cases.
GCGCTGAC	0.0819
ATGCATAA	0.213
GCTACATA	-0.0387

Working through the 6 sequences below one at a time, give PBM 8-mer E-score for each.
1. CTACCCAA
2. CGGCCCAA
3. AGCACGTC
4. AGGTAGCA
5. ACCACGCA
6. TTACCCAA

1: 0.085; 2: -0.0811; 3: -0.156; 4: 0.107; 5: -0.0882; 6: 0.269

* * *

System: 2Sb-muMax20 (muMax20 with two 1,3-bis(methyl)benzene Cys staples, A13C/A17C and Q88C/A92C, C-terminal Lys)
Assay: PBM 8-mer E-score (E-score (rank enrichment, -0.5 to 0.5)); higher = stronger preferential binding
The full ranking holds about 33,000 sequences; the median of “E-score (rank enrichment, -0.5 to 0.5)” is about -0.0028, and the highest 2% start at about 0.23. This excerpt belongs to a sample that is enriched for the highest values.
Binning of PBM 8-mer E-score into classes: Low (below -0.02), Medium (-0.02 to below 0.1), High (0.1 or more)

# count of solved cases: 10
AATAGCAA	High
CGGGGGAA	Low
AATGAACA	High
AATTTATA	High
ACGTTTAG	Medium
AACAACAC	High
AATTTATC	High
ATCACAAA	High
CTTAATAC	High
AATAGCTA	High

Please look at the following sequence next.
Lab note: sort CCCACTAA into the matching PBM 8-mer E-score band. High

* * *

Test system: 2Sb-muMax20 (muMax20 with two 1,3-bis(methyl)benzene Cys staples, A13C/A17C and Q88C/A92C, C-terminal Lys)
Assay: PBM 8-mer E-score (E-score (rank enrichment, -0.5 to 0.5)); higher = stronger preferential binding
In all, about 33,000 sequences were measured (“E-score (rank enrichment, -0.5 to 0.5)”: median about -0.0028, highest 2% from about 0.23 on). The entries come from a sample that favours the highest values as a whole.
Note to self: values exactly at 0.02 are yes (1). So PBM 8-mer E-score at or above 0.02 is yes (1), below is no (0).

CTCTACTA	yes (1)
ACCAAAGT	no (0)
AGCTCTAG	no (0)

Does the reported PBM 8-mer E-score for GAGCCAAA fall at or above the 0.02 mark? no (0)

Is reported PBM 8-mer E-score greater than or equal to 0.02 here: GAGGACGA no (0)

Test whether the sequence GAATAGCA records PBM 8-mer E-score of 0.02 or higher. yes (1)

State whether the measured PBM 8-mer E-score reaches 0.02, counting equality as reaching it, for ACATCGGT no (0)

Say whether AACATGTA shows PBM 8-mer E-score of 0.02 or more. yes (1)

Determine whether this sequence has PBM 8-mer E-score no lower than 0.02: CCACCCCA yes (1)

Evaluate GTCTAGTA : PBM 8-mer E-score at minimum 0.02? yes (1)

State whether the measured PBM 8-mer E-score reaches 0.02, counting equality as reaching it, for CTCTAATA yes (1)
